- Test system: microtubule (Bos taurus)
- experiment-description: Binding affinity to microtubule (Bos taurus) after 30 mins at 35 degC by flutax-2 displacement method
measurement-label: Kb (×10⁷ /M)
# value in ×10⁷ /M; strip the unit string

Some entries whose results are on file:
CC(=O)O[C@@]12CO[C@@H]1C[C@H](O)[C@@]1(C)C(=O)[C@H](OC(=O)N(C)C)C3=C(C)[C@@H](OC(=O)[C@H](O)[C@H](C=C(F)F)NC(=O)OC(C)(C)C)C[C@@](O)([C@@H](OC(=O)c4ccccc4)[C@H]21)C3(C)C; 10
CC(=O)O[C@H]1C(=O)[C@@]2(C)[C@H]([C@H](OC(=O)c3ccccc3)[C@]3(O)C[C@H](OC(=O)[C@H](O)[C@H](CC(C)C)NC(=O)OC(C)(C)C)C(C)=C1C3(C)C)[C@]1(OC(C)=O)CO[C@@H]1C[C@@H]2O; 2.4
CCC(=O)O[C@H]1C(=O)[C@@]2(C)[C@H]([C@H](OC(=O)c3cccc(N=[N+]=[N-])c3)[C@]3(O)C[C@H](OC(=O)[C@H](O)[C@@H](NC(=O)OC(C)(C)C)c4ccccc4)C(C)=C1C3(C)C)[C@]1(OC(C)=O)CO[C@@H]1C[C@@H]2O; 628
C/C=C(\C)C(=O)N[C@@H](c1ccccc1)[C@@H](O)C(=O)O[C@H]1C[C@@]2(O)[C@@H](OC(=O)c3cccc(N=[N+]=[N-])c3)[C@@H]3[C@]4(OC(C)=O)CO[C@@H]4C[C@H](OC(=O)CC)[C@@]3(C)C(=O)[C@H](O)C(=C1C)C2(C)C; 87

// switching to the query molecule
Quick one: Kb of CC(=O)O[C@@]12CO[C@@H]1C[C@H](O)[C@@]1(C)C(=O)[C@H](OC(=O)C3CC3)C3=C(C)[C@@H](OC(=O)[C@H](O)[C@H](C=C(C)C)NC(=O)OC(C)(C)C)C[C@@](O)([C@@H](OC(=O)c4ccccc4)[C@H]21)C3(C)C ? 8
